tested on: Escherichia coli; experiment: Antimicrobial activity against Escherichia coli ATCC 25922; format: functional
Result Type: MIC (µg/mL)

{"columns": ["Chemical Smiles", "Assayed Target", "Result Type", "Result Number"],
 "data": [
  ["CN(C)C(=N)c1ccc2cc(-c3ccc(Oc4ccc(-c5cc6ccc(C(=N)N(C)C)cc6[nH]5)c(C(F)(F)F)c4)cn3)[nH]c2c1", "Escherichia coli", "MIC", 8],
  ["C/N=C(\\NC)c1ccc2cc(-c3ccc(Oc4ccc(-c5cc6ccc(C(=N)NC)cc6[nH]5)cc4)cc3)[nH]c2c1", "Escherichia coli", "MIC", 16],
  ["C/N=C(\\NC)c1ccc2cc(-c3ccc(Oc4ccc(-c5cc6ccc(/C(=N\\C)NC)cc6[nH]5)cc4)cc3)[nH]c2c1", "Escherichia coli", "MIC", 64],
  ["CN(C)C(=N)c1ccc2cc(-c3ccc(Oc4ccc(-c5cc6ccc(C(=N)N(C)C)cc6[nH]5)cc4)cc3)[nH]c2c1", "Escherichia coli", "MIC", 4],
  ["CC(C)NC(=N)c1ccc2cc(-c3ccc(Oc4ccc(-c5cc6ccc(C(=N)NC(C)C)cc6[nH]5)c(C(F)(F)F)c4)cn3)[nH]c2c1", "Escherichia coli", "MIC", 8],
  ["CNC(=N)c1ccc2cc(-c3ccc(Oc4ccc(-c5cc6ccc(C(=N)NC)cc6[nH]5)c(C(F)(F)F)c4)cc3)[nH]c2c1", "Escherichia coli", "MIC", 4],
  ["CN(C)C(=N)c1ccc2cc(-c3ccc(Oc4ccc(-c5cc6ccc(C(=N)N(C)C)cc6[nH]5)cn4)cc3)[nH]c2c1", "Escherichia coli", "MIC", 4]
]}

----------
List of log10 of MIC values.
tested on: Escherichia coli; test: Antimicrobial activity against Escherichia coli ATCC 25922; format: functional
Result Type: log10 of MIC (log10 of the value in µg/mL)

{"columns": ["Chemical Smiles", "Assayed Target", "log10 of MIC"],
 "data": [
  ["CN(C)C(=N)c1ccc2cc(-c3ccc(Oc4ccc(-c5cc6ccc(C(=N)N(C)C)cc6[nH]5)nc4)cc3)[nH]c2c1", "Escherichia coli", 0.00],
  ["CC(C)NC(=N)c1ccc2cc(-c3ccc(Oc4ccc(-c5cc6ccc(C(=N)NC(C)C)cc6[nH]5)c(Cl)c4)cc3)[nH]c2c1", "Escherichia coli", 2.11],
  ["CC(C)NC(=N)c1ccc2cc(-c3ccc(Oc4ccc(-c5cc6ccc(C(=N)NC(C)C)cc6[nH]5)c(C(F)(F)F)c4)cc3)[nH]c2c1", "Escherichia coli", 1.20],
  ["COc1cc(Oc2ccc(-c3cc4ccc(C(=N)NC(C)C)cc4[nH]3)cc2)ccc1-c1cc2ccc(C(=N)NC(C)C)cc2[nH]1", "Escherichia coli", 1.20],
  ["CNC(=N)c1ccc2cc(-c3ccc(Oc4ccc(-c5cc6ccc(C(=N)NC)cc6[nH]5)cn4)cc3)[nH]c2c1", "Escherichia coli", 1.20],
  ["CNC(=N)c1ccc2cc(-c3ccc(Oc4ccc(-c5cc6ccc(C(=N)NC)cc6[nH]5)c(OC)c4)cc3)[nH]c2c1", "Escherichia coli", 1.20],
  ["CN(C)C(=N)c1ccc2cc(-c3ccc(Oc4ccc(-c5cc6ccc(C(=N)N(C)C)cc6[nH]5)c(Cl)c4)cc3)[nH]c2c1", "Escherichia coli", 1.51],
  ["CNC(=N)c1ccc2cc(-c3ccc(Oc4ccc(-c5cc6ccc(C(=N)NC)cc6[nH]5)c(Cl)c4)cc3)[nH]c2c1", "Escherichia coli", 1.81]
]}

----------
tested on: Klebsiella pneumoniae; assay: Antimicrobial activity against Klebsiella pneumoniae 7; type: functional
List of MIC values.

{"columns": ["Chemical Smiles", "Measure Unit", "Lt Gt Eq", "MIC"],
 "data": [
  ["CC(C)NC(=N)c1ccc2cc(-c3ccc(Oc4ccc(-c5cc6ccc(C(=N)NC(C)C)cc6[nH]5)c(C(F)(F)F)c4)cc3)[nH]c2c1", "µg/mL", "=", 16],
  ["CC(C)NC(=N)c1ccc2cc(-c3ccc(Oc4ccc(-c5cc6ccc(C(=N)NC(C)C)cc6[nH]5)c(Cl)c4)cc3)[nH]c2c1", "µg/mL", ">", 128],
  ["CN(C)C(=N)c1ccc2cc(-c3ccc(Oc4ccc(-c5cc6ccc(C(=N)N(C)C)cc6[nH]5)cc4)cc3)[nH]c2c1", "µg/mL", "=", 8],
  ["CC(C)NC(=N)c1ccc2cc(-c3ccc(Oc4ccc(-c5cc6ccc(C(=N)NC(C)C)cc6[nH]5)c(C(F)(F)F)c4)cn3)[nH]c2c1", "µg/mL", "=", 16]
]}
